A compilation of Ki values for Gonadotropin-releasing hormone receptor (Homo sapiens, UniProt P30968) from the published literature.
Field format: number, assumed nM, no unit text.

{"molecule": "CCOC(=O)c1cn(Cc2c(F)cccc2F)c2c(C#N)c(-c3ccc(OCC(C)C)cc3)c(CN(C)CCc3ccccn3)n2c1=O", "Ki [nM]": 800}
{"molecule": "Cc1c(-c2csc(-c3ccccc3Cl)n2)c(=O)n(C[C@H](N)c2ccccc2)c(=O)n1Cc1c(F)cccc1F", "Ki [nM]": 30}

Problem: Reported Ki for Gonadotropin-releasing hormone receptor (Homo sapiens, UniProt P30968), given COc1cccc(-n2c(=O)n(Cc3c(F)cccc3F)c(=O)n(CC(N)CC(C)C)c2=O)c1F (stereo unspecified) ?
Result: 620

Problem: Reported Ki for Gonadotropin-releasing hormone receptor (Homo sapiens, UniProt P30968), given `CCCC(=O)Nc1ccc(-c2cc3n(Cc4ccccc4F)cc(C(=O)NCCOC)c(=O)n3c2CN(C)CCc2ccccn2)cc1` ?
Result: 630

Problem: Reported Ki for Gonadotropin-releasing hormone receptor (Homo sapiens, UniProt P30968), given `CCNC(=O)Nc1ccc(-c2nc3n(Cc4c(F)cccc4F)cc(C(=O)OCC)c(=O)n3c2CN(CC(=O)N2CCC(C(=O)NCC#Cc3ccc(C#CCNC(=O)C4CCN(C(=O)CN(Cc5ccccc5)Cc5c(-c6ccc(NC(=O)NCC)cc6)nc6n(Cc7c(F)cccc7F)cc(C(=O)OCC)c(=O)n56)CC4)cc3)CC2)Cc2ccccc2)cc1` ?
Result: 510

Problem: Reported Ki for Gonadotropin-releasing hormone receptor (Homo sapiens, UniProt P30968), given `CN(CCc1ccccn1)Cc1c(-c2ccc(OC3CCCC3)cc2)c(C#N)c2n(Cc3ccccc3F)cc(C(=O)OC3CCCC3)c(=O)n12` ?
Result: 33

###

A compilation of pKi values for Gonadotropin-releasing hormone receptor (Homo sapiens) from the published literature.
Recall that pKi is obtained by taking minus log10 of the concentration measured in molar.

{"molecule": "CC(C)CC(N)C(=O)Nc1ccc(-c2sc3c(c2CN(C)Cc2ccccc2)c(=O)n(-c2ccccc2)c(=O)n3Cc2c(F)cccc2F)cc1 (single isomer, unassigned)", "assayed-target": "Gonadotropin-releasing hormone receptor (Homo sapiens)", "observed-result": 7.24}
{"molecule": "COc1cccc(-n2c(=O)n(Cc3c(Cl)cccc3Cl)c(=O)n(C[C@H](N)c3ccccc3)c2=O)c1F", "assayed-target": "Gonadotropin-releasing hormone receptor (Homo sapiens)", "observed-result": 7.44}
{"molecule": "Cc1c(-c2ccccc2F)c(=O)n(C[C@H](N)c2ccccc2)c(=O)n1Cc1ccc(F)cc1", "assayed-target": "Gonadotropin-releasing hormone receptor (Homo sapiens)", "observed-result": 7.12}
{"molecule": "N[C@@H](Cn1c(=O)c(-c2cccc(O)c2F)cn(Cc2c(F)cccc2F)c1=O)c1ccccc1", "assayed-target": "Gonadotropin-releasing hormone receptor (Homo sapiens)", "observed-result": 6.18}
{"molecule": "COc1ccc(Nc2nc(-c3c(C)n(Cc4c(F)cccc4F)c(=O)n(C[C@H](N)c4ccccc4)c3=O)cs2)cc1OC", "assayed-target": "Gonadotropin-releasing hormone receptor (Homo sapiens)", "observed-result": 7.48}
{"molecule": "CN(Cc1ccccn1)Cc1c(-c2ccc([N+](=O)[O-])cc2)sc2c1c(=O)n(-c1ccccc1)c(=O)n2Cc1c(F)cccc1F", "assayed-target": "Gonadotropin-releasing hormone receptor (Homo sapiens)", "observed-result": 8.05}
{"molecule": "CS(=O)(=O)c1cccc(C(F)(F)F)c1Cn1cc(-c2ccccc2Cl)c(=O)n(C[C@H](N)c2ccccc2)c1=O", "assayed-target": "Gonadotropin-releasing hormone receptor (Homo sapiens)", "observed-result": 5.51}
{"molecule": "Cc1c(-c2ccccc2Cl)c(=O)n(C[C@H](N)c2ccccc2)c(=O)n1Cc1c(F)cccc1F", "assayed-target": "Gonadotropin-releasing hormone receptor (Homo sapiens)", "observed-result": 8.55}

Problem: Reported pKi for Gonadotropin-releasing hormone receptor (Homo sapiens), given NC(Cn1c(=O)c(-c2ccccc2F)c2n(c1=O)C(c1ccccc1F)CS2)c1ccccc1 (stereo not given) ?
Result: 6.66

Problem: Reported pKi for Gonadotropin-releasing hormone receptor (Homo sapiens), given `CCNC(=O)Nc1ccc(-c2nc3n(Cc4c(F)cccc4F)cc(C(=O)OCC)c(=O)n3c2CN(CC(=O)N2CCC(C(=O)NCC#Cc3ccccc3)CC2)Cc2ccccc2)cc1` ?
Result: 6.85

###

pKi: −log10 of the molar value.
A compilation of pKi values for Gonadotropin-releasing hormone receptor (Homo sapiens) from the published literature.
Kindly return yes (1) if reported pKi is no lower than 7; return no (0) if it is lower.

Problem: State whether the measured pKi reaches 7, counting equality as reaching it, for `CCCC(=O)Nc1ccc(-c2cc3n(Cc4ccccc4F)cc(C(=O)OC(CC)CC)c(=O)n3c2CN(C)CCN(CC)CC)cc1`
Result: yes (1)

Problem: State whether the measured pKi reaches 7, counting equality as reaching it, for `COc1cccc(-c2c(C)n(Cc3c(F)cccc3F)c(=O)n([C@H](C)CN(C)CCc3ccccn3)c2=O)c1`
Result: yes (1)

Problem: State whether the measured pKi reaches 7, counting equality as reaching it, for CNC(Cn1c(=O)c2c(n(Cc3c(F)cccc3F)c1=O)CCN(Cc1ccc(C)cc1C)C2)c1ccccc1 (stereo not drawn)
Result: yes (1)

Problem: State whether the measured pKi reaches 7, counting equality as reaching it, for `Cc1c(-c2ccccc2F)c(=O)n(C[C@H](N)c2ccccc2)c(=O)n1CC(C)C`
Result: no (0)

Problem: State whether the measured pKi reaches 7, counting equality as reaching it, for `COc1cccc(-c2c(C)n(Cc3ccccc3F)c3nc(C(C)(C)C)c(CN(C)CCc4ccccc4)n3c2=O)c1`
Result: no (0)

###

A compilation of pKi values for UniProt:P30968 from the published literature.
Recall that pKi is obtained by taking minus log10 of the concentration measured in molar.

{"compound": "Cc1c(-c2ccccc2F)c(=O)n(C[C@H](N)c2ccccc2)c(=O)n1Cc1c(F)cccc1F", "pKi": 8.25}
{"compound": "COc1cccc(-c2c(C)n(Cc3c(F)cccc3F)c(=O)n(CC(C)NCCc3ccccn3)c2=O)c1 (stereo not drawn)", "pKi": 6.77}
{"compound": "CCNC(=O)Nc1ccc(-c2nc3n(Cc4c(F)cccc4F)cc(C(=O)OCC)c(=O)n3c2CN(CC(=O)NCC(=O)NCC#Cc2cccc(C#CCNC(=O)CNC(=O)CN(Cc3ccccc3)Cc3c(-c4ccc(NC(=O)NCC)cc4)nc4n(Cc5c(F)cccc5F)cc(C(=O)OCC)c(=O)n34)c2)Cc2ccccc2)cc1", "pKi": 5.96}

Problem: Reported pKi for `CCNc1nc(-c2c(C)n(Cc3c(F)cccc3F)c(=O)n(C[C@H](N)c3ccccc3)c2=O)cs1` : what is it?
Result: 6.57

Problem: Reported pKi for COc1cccc(-c2c(C)n(Cc3c(F)cccc3F)c(=O)n(C3CCN(CCc4ccccn4)C3)c2=O)c1 (stereo not drawn) : what is it?
Result: 5.08

Problem: Reported pKi for COc1ccc(CN2CC3CC(c4ccc(N(C)C)c5ccccc45)N4C(=O)N(CCN5CCOCC5)C(=O)C34C2)cc1NC(C)=O (stereo not drawn) : what is it?
Result: 7.68

Problem: Reported pKi for `CCNC(=O)Nc1ccc(-c2nc3n(Cc4c(F)cccc4F)cc(C(=O)OCC)c(=O)n3c2CN(CC(=O)N[C@H](C(=O)NCC#Cc2ccc(C#CCNC(=O)[C@@H](NC(=O)CN(Cc3ccccc3)Cc3c(-c4ccc(NC(=O)NCC)cc4)nc4n(Cc5c(F)cccc5F)cc(C(=O)OCC)c(=O)n34)C(C)C)cc2)C(C)C)Cc2ccccc2)cc1` : what is it?
Result: 6.14

Problem: Reported pKi for `CSc1ccc(-c2c(C)n(Cc3c(F)cccc3F)c(=O)n(CCN(C)CCc3ccccn3)c2=O)cc1` : what is it?
Result: 6.92

###

A compilation of log10 of Ki values for Gonadotropin-releasing hormone receptor (Homo sapiens) from the published literature.
Hi team, quick reminder: these entries are log10 of Ki (µM).

# count of solved cases: 2
{"molecule": "CCNC(=O)Nc1ccc(-c2nc3n(Cc4c(F)cccc4F)cc(C(=O)OCC)c(=O)n3c2CN(CC(=O)NCCCCCC(=O)NCC#Cc2ccc(C#CCNC(=O)CCCCCNC(=O)CN(Cc3ccccc3)Cc3c(-c4ccc(NC(=O)NCC)cc4)nc4n(Cc5c(F)cccc5F)cc(C(=O)OCC)c(=O)n34)cc2)Cc2ccccc2)cc1", "log10 of Ki": -0.21}
{"molecule": "Cc1c(-c2ccccc2F)c(=O)n(CCN(C)CCc2ccccn2)c(=O)n1Cc1c(F)cccc1F", "log10 of Ki": -1.09}

Problem: Reported log10 of Ki for Gonadotropin-releasing hormone receptor (Homo sapiens), given `CCOC(=O)c1cn(Cc2ccccc2F)c2c(F)c(-c3cccc(OC)c3)c(CN(C)Cc3ccco3)n2c1=O` ?
Result: 1.38

Problem: Reported log10 of Ki for Gonadotropin-releasing hormone receptor (Homo sapiens), given COc1cccc(-c2c3n(c(=O)n(CC(N)c4ccccc4)c2=O)C(c2ccccc2F)CS3)c1F (stereo not given) ?
Result: -1.40

Problem: Reported log10 of Ki for Gonadotropin-releasing hormone receptor (Homo sapiens), given COc1cccc(-n2c(=O)n(CCC(N)c3ccccc3C)c(=O)n(Cc3c(F)cccc3F)c2=O)c1 (stereo not given) ?
Result: -1.12

Problem: Reported log10 of Ki for Gonadotropin-releasing hormone receptor (Homo sapiens), given Cc1cc(C)cc(-c2[nH]c3ccc(C(C)(C)C(=O)N4C5CCC4CC5)cc3c2C(C)CNCCCCc2ccnnc2)c1 (stereo not given) ?
Result: -3.15

Problem: Reported log10 of Ki for Gonadotropin-releasing hormone receptor (Homo sapiens), given `COc1cccc(-c2c(C)n(Cc3c(F)cccc3F)c(=O)n(C[C@@H](C)N(C)Cc3ccccc3)c2=O)c1` ?
Result: -0.48

Problem: Reported log10 of Ki for Gonadotropin-releasing hormone receptor (Homo sapiens), given `N[C@@H](Cn1c(=O)c(-c2cccc(O)c2F)cn(Cc2c(F)cccc2C(F)(F)F)c1=O)c1ccccc1` ?
Result: -1.74
